Source listed as patent US12240853B2.

protocol notes: Example 18 cynomolgus monkey PK study (SC and IM)
Type: in vivo, cynomolgus monkeys
test settings: male, cynomolgus monkey, plasma, sc, 20 mg/kg, SC 20 mg/kg equivalent of EFdA; Monkey 1001; 0.021 days; read-out: Example 18 plasma concentrations
property name: concentration at 0.021 days (ng/mL)

INSERT INTO assay_data (compound_structure, numeric_value) VALUES
  ('C#C[C@]1(COC(=O)CCCCCCCCC)O[C@@H](n2cnc3c(N)nc(F)nc32)C[C@@H]1OC(=O)CCCCCCCCC', 49.4);

====

protocol notes: Example 18 cynomolgus monkey PK study (SC and IM)
Type: in vivo, cynomolgus monkeys
test settings: male, cynomolgus monkey, plasma, intramuscular, 20 mg/kg equivalent of EFdA, IM 20 mg/kg equivalent of EFdA; Monkey 2001; 1 days; read-out: Example 18 plasma concentrations
property name: concentration at 1 days (ng/mL)

INSERT INTO measurements (compound_structure, unit, numeric_value) VALUES
  ('C#C[C@]1(COC(=O)CCCCCCCCC)O[C@@H](n2cnc3c(N)nc(F)nc32)C[C@@H]1OC(=O)CCCCCCCCC', 'ng/mL', 6.89);
